Her2 level values by entry
- target_under_test: Receptor tyrosine-protein kinase erbB-2 (Homo sapiens) (UniProt P04626)
- Sequence (P04626 whole entry, looked up): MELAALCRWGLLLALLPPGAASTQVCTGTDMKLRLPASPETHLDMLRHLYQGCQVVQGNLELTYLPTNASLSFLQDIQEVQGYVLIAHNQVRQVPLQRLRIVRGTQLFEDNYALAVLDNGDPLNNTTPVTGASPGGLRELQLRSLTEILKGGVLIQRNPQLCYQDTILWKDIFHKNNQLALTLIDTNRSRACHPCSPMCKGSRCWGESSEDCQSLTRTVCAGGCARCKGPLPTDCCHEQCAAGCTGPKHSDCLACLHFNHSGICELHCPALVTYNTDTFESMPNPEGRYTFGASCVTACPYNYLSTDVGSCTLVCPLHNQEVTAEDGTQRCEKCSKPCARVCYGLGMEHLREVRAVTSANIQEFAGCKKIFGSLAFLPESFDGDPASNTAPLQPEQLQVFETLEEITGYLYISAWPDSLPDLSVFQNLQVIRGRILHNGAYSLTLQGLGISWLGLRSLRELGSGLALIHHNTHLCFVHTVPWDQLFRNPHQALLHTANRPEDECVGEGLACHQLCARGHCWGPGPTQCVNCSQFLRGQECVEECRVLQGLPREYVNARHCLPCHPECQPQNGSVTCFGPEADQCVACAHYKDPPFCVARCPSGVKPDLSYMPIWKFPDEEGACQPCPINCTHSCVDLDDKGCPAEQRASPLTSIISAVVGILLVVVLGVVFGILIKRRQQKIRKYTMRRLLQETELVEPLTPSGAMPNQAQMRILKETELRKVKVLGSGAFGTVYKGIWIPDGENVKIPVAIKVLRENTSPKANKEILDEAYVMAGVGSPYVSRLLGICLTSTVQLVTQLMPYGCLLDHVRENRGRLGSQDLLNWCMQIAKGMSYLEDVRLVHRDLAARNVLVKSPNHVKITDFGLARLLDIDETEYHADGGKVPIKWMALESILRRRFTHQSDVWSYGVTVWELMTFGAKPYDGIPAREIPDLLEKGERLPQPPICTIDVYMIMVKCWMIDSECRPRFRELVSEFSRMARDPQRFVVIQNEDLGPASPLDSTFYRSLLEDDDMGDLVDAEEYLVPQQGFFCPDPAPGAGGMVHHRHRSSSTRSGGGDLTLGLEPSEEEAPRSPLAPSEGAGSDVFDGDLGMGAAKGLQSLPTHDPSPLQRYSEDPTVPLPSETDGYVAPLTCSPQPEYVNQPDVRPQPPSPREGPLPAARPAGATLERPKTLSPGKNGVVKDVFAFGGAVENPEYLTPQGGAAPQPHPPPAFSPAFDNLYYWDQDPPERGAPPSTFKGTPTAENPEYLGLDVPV
- assay_summary: reducers of endogenous Her2 protein level, primary screen, SKBR3 breast tumor cells, AlphaScreen, ATP viability (AID 461);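 note: lower value means less Her2 protein in the cells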
- experimental_setup: 18-24 h, at 10 µM, stronger effect = lower value
Please reply with the bare figure in % and do not write the unit itself.

I'd like to know its Her2 level. The molecule in question is "O=C(O)CCc1ccc(-c2ccc(Br)cc2)n1CC(=O)O" 102

Query (molecule): "C=C(C)c1cccc(C(C)(C)NC(=O)Nc2ncccn2)c1" ; field requested: Her2 level 107

Entry "COC(=O)c1ccc(CSc2nnc(-c3ccncc3)o2)o1" has what Her2 level? 69

// query Her2 level value for entry "CCn1c2ccccc2c2cc(NC(=O)CSc3nnc(C4CC4)n3Cc3ccco3)ccc21" 88

---

- assay_summary: reversal of MRP1-mediated doxorubicin resistance, pilot screen, H69AR cells, doxorubicin co-treatment (AID 601)
- experimental_setup: H69AR cells, CellTiter-Glo, 72 h; compound alone cytotoxicity; at 10 µM
1.0 if viability is below 90%. 0.0 if not; exact matches included in 0.0.

The examples below pair each entry with its known result.
{"compound": "COc1cc2c(C)nc(C)c(C#N)c2cc1OC", "class_name": 1.0}
{"compound": "CCOC(=O)N1CCN(C(=O)COc2ccc(Br)cc2Cl)CC1", "class_name": 0.0}
{"compound": "O=C(c1ccco1)N1CCN(S(=O)(=O)c2ccc(C3CCCCC3)cc2)CC1", "class_name": 1.0}
{"compound": "COCCn1c(SCC(=O)Nc2nnc(C)s2)nnc1-c1c[nH]c2ccccc12", "class_name": 0.0}
{"compound": "CCOc1ccc(CSC(CC(=O)O)C(=O)O)cc1 (configuration not stated)", "class_name": 1.0}
{"compound": "O=C(CN(c1ccc(F)cc1)S(=O)(=O)c1ccc2c(c1)OCCO2)Nc1ccc2c(c1)OCO2", "class_name": 0.0}

Switching to the query record.
Hello, is viability of the following compound strictly smaller than 90%? Cc1cc(OCC(O)CN2CCN(CCO)CC2)ccc1C(C)C (configuration not stated) 0.0

---

- assay_summary: SK-BR-3 cell growth inhibitors, pilot screen, 24 h, human (AID 572);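 note: compound exposure lasted between 18 and 24 h rather than exactly 24 h; 100% = carrier-treated control wells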
- experimental_setup: SK-BR-3 viability, CellTiter-Glo luminescence, at 10 µM, stronger effect = lower value
The source made the active and inactive calls.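 The calls were made as follows: active = viability at or below 10% of carrier control in both of two separate runs; inconclusive = viability at or below 10% in only one of the two runs; inactive = the rest.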
metric: viability

Returns the measured viability for the input compound. Input: COc1ccc(CC(=O)OCc2nnc(C3COc4ccccc4O3)o2)cc1OC (configuration not stated) 116% (inactive)

Fill in the blank: the reported viability of "CCc1nc(C)c(C#N)c2cc(OC)c(OC)cc12" is ____. 103% (inactive)

---

- assay_summary: 384-well plate pilot, post-Golgi transport modulator project, inhibition of yeast transport mutant growth (AID 636)
- experimental_setup: absorbance 615 nm, about 18 h, stronger effect = higher value
metric: inhibition (%)
Number in %, nothing else.

{"compound": "c1cn(C23CC4CC(CC(C4)C2)C3)cn1", "value": -5.6}
{"compound": "O=C(CSc1nc(O)c(Cc2ccccc2)c(=O)[nH]1)Nc1ccccc1", "value": -2.08}
{"compound": "CCOC(=O)N1CCN(c2cc(=O)n(-c3ccc(OCC)cc3)c(=O)[nH]2)CC1", "value": -4.93}

Need inhibition, item "COc1cccc(C(=O)Nc2ccc(C)cc2)c1" -3.47

Dear colleague, I am looking for the recorded inhibition of the following compound: CCOC(=O)C(C)On1c(SC(C)C(=O)OCC)nc2ccccc2c1=O (centres undefined) -3.68

# input compound: CCC(C(=O)O)n1c(C(F)(F)F)nc2ccccc21 (centres undefined) ; wanted: its inhibition -5.62

# inhibition lookup, item CCOC(=O)c1cc2sc(C)cc2n1C(C)C(=O)OCC (centres undefined) -3.6

Param item = O=C(C1CCCN(S(=O)(=O)c2cccnc2)C1)N1CCN(c2ccccn2)CC1 (centres undefined) ; retrieve measured inhibition. 0

Request the reported inhibition associated with "CC(=O)c1cc2c(=O)c3cc(C)ccc3oc2nc1C" -2.89

---

- assay_summary: 384-well plate pilot, post-Golgi transport modulator project, inhibition of yeast transport mutant growth (AID 636)
- experimental_setup: absorbance 615 nm, about 18 h, stronger effect = higher value
Measured inhibition, listed per entry.
Give the quantity in %, number only.

Sample records with inhibition:
{"molecule": "CC(C)(C)n1ncc2c(=O)n(CC(=O)NCCc3ccccc3)cnc21", "inhibition, %": 0.92}
{"molecule": "CCC(C)(C(=O)NC1CCCCC1)N(CC1CCCO1)C(=O)c1ccccn1 (stereo not drawn)", "inhibition, %": -0.26}

Requested field: inhibition. Item: "CC(C)(C)C(=O)CCN1C(=O)C2(OCCO2)c2ccccc21" -1.82

---

Documented viability across a set of compounds
- assay_summary: HUVEC growth inhibition – cell-based, human, primary screen (AID 575);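 note: 100% = median of untreated cell wells with 0.1% DMSO on each plate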
- experimental_setup: HUVEC proliferation, CellTiter-Glo luminescence, 72 h; at 10 µM; stronger effect = lower value
Please respond with the number in % and leave the unit unwritten.

Worked cases, viability given:
{"compound": "Cc1nc2cc(-n3ccc(=O)cc3)ccc2n1-c1ccccc1", "viability, %": 79.7}
{"compound": "CCSc1nnc2c(n1)OC=Nc1ccc(Br)cc1-2", "viability, %": 79.3}
{"compound": "O=C(NCc1cccs1)c1cc2c(s1)-c1ccccc1OC2", "viability, %": 76.8}

Now look at this one.
Returns the measured viability for the input compound. Input: O=C(c1cc2ccccc2oc1=O)N1CCSC1c1ccco1 (centres undefined) 97.5

---

- assay_summary: reversal of MRP1-mediated doxorubicin resistance, pilot screen, H69AR cells, doxorubicin co-treatment (AID 601)
- experimental_setup: H69AR cells + 2 uM doxorubicin, CellTiter-Glo, 72 h; at 10 µM; stronger effect = higher value
metric: differential viability (reversal) (%)
Please give a number only; it is taken to be in %.

// lookup differential viability (reversal) for "Cc1ccc(-c2nnc3ccc(SCC(=O)NCc4ccco4)nn23)cc1" 9.33

Form field: reported differential viability (reversal) of "COC(=O)c1cc(OC)c(OC)cc1NC(=O)CCC1CCCC1" -3.46

Need differential viability (reversal) of "CCOc1ccc2ccccc2c1C(=O)N1CCN(c2ccccc2)CC1" , thanks. -57

Requested read-out: differential viability (reversal). Entry: O=C(NC1CCS(=O)(=O)C1)c1c(NC(=O)C2COc3ccccc3O2)sc2c1CCCC2 (centres undefined) 2.25

// lookup differential viability (reversal) for "O=C(Nc1ccccc1N1CCCCC1)c1ncoc1-c1ccc(F)cc1" -1.2

Would you kindly share the measured differential viability (reversal) for "O=C(Nc1ccc(N2CCOCC2)c(F)c1)c1ccncc1" ? 12.5

Tell me the measured differential viability (reversal) of "COc1cc(C(=O)N2CCC(c3nc(-c4cccnc4)no3)CC2)cc(OC)c1OC" , please. 11.1

---

- assay_summary: growth suppression of yeast trafficking mutant, preliminary HTS, modulators of trafficking downstream of Golgi apparatus project, 1536-format plate, OD 615 nm (AID 637)
- experimental_setup: yeast transport mutant growth, absorbance 615 nm, 18 h; stronger effect = higher value
The source made the active and inactive calls. Cut-off read from the data, not from the text of the source: active = inhibition above about 30%; inactive = the rest.
metric: inhibition

Field: example entries. Status: answers known.
{"compound": "Nc1ncnc2nc(SCCN3CCCCC3)[nH]c12", "inhibition": "-5.32% (inactive)"}
{"compound": "O=C(c1cc2ccccc2oc1=O)N1CCSC1c1ccco1 (centres undefined)", "inhibition": "5.74% (inactive)"}

Item under review: COc1ccccc1NC(=O)c1cc2n(n1)C(C(F)(F)F)CC(c1ccc3c(c1)OCO3)N2 (centres undefined) . Reported inhibition? -3.33% (inactive)

inhibition for "CCC(=O)Nc1ccc(Cl)c(NC(=O)C(C)C)c1" ? 6.07% (inactive)

---

- assay_summary: reversal of MRP1-mediated doxorubicin resistance, pilot screen, H69AR cells, doxorubicin co-treatment (AID 601)
- experimental_setup: H69AR cells + 2 uM doxorubicin, CellTiter-Glo, 72 h; at 10 µM; stronger effect = higher value
metric: differential viability (reversal) (%)
Write the number in % without appending the unit.

{"compound_string": "COC(=O)c1cc(O)c(OCc2ccccc2)c(O)c1", "differential viability (reversal) / %": 18}
{"compound_string": "CN(C=C1C(=O)CC(C)(C)CC1=O)CCN1CCNCC1", "differential viability (reversal) / %": 10.2}
{"compound_string": "O=S(=O)(c1ccc(-c2csc(-c3cccnc3)n2)cc1)N1CCCCC1", "differential viability (reversal) / %": 1.22}

Would you kindly share the measured differential viability (reversal) for "O=C1c2ccccc2CN1CCNS(=O)(=O)c1ccc(Cl)cc1" ? 3.27

---

The reader will find reported inhibition values listed item by item below.
- assay_summary: 384-well plate pilot, post-Golgi transport modulator project, inhibition of yeast transport mutant growth (AID 636)
- experimental_setup: absorbance 615 nm, about 18 h, stronger effect = higher value
Your answer should be a plain number; it is taken to be in %.

Example results:
{"molecule": "O=C1CC(c2ccco2)=Nc2ccccc2N1", "value": -0.13}
{"molecule": "Cc1cccc(N2CCN(C(=O)c3cc4c(=O)[nH]c5ccccc5c4n3C)CC2)c1C", "value": -3.33}
{"molecule": "CCC1SC2=NC(C)=C(C(=O)OC)C(c3ccc(C)cc3)N2C1=O (centres undefined)", "value": -3.51}

Entry under review: CSc1cccc(NC(=O)C2CCCN2S(=O)(=O)c2ccc3c(c2)CCC(=O)N3)c1 (centres undefined) . Reported inhibition? -4.21

Quick check: inhibition of "CCOc1ccccc1N(CC(=O)NC1CCCC1)C(=O)CCCC(=O)Nc1ccccn1" ? -2.16

Dear colleague, I am looking for the recorded inhibition of the following molecule: "CCn1c(SCC(=O)Nc2ccc(C(C)=O)cc2)nc2ccccc21" -1.45

Which measured inhibition value corresponds to COc1ccc(Br)cc1CNC(=O)C1CCCN(S(C)(=O)=O)C1 (centres undefined) ? 0.9

Quick check: inhibition of "Cc1cnc(C(=O)OCC(=O)Nc2ccc(Cl)cc2Cl)cn1" ? -8.49

Given "COc1ccc2nc(SCC(=O)NC(C)C)[nH]c2c1" , state its recorded inhibition. 3.25
